Every entry's value here was drawn from paper PMC3823425.

PROTOCOL DESCRIPTION: Tissue distribution in tumour-bearing nude mice
Assay type: in vivo
TEST SETTINGS: nude, mouse, lung, oral, 10 mg/kg
ASSAY METRIC: concentration at 21 day

compound="CNC(=O)c1cccc2cc(Oc3ccnc4cc(OCC5(N)CC5)c(OC)cc34)ccc12 [AL3810]" observed_value="208 ng/g"

* * *

PROTOCOL DESCRIPTION: Tissue distribution in tumour-bearing nude mice
Assay type: in vivo
TEST SETTINGS: nude, mouse, liver, oral, 10 mg/kg
ASSAY METRIC: concentration at 21 day (ng/g)

structure_as_smiles=CNC(=O)c1cccc2cc(Oc3ccnc4cc(OCC5(N)CC5)c(OC)cc34)ccc12 assay_metric="concentration at 21 day" observed_value=276

* * *

System: HUVEC cells
PROTOCOL DESCRIPTION: VEGF-driven HUVEC proliferation
Assay type: cell-based
TEST SETTINGS: Homo sapiens, read-out: IC50 VEGF-driven HUVECs proliferation
ASSAY METRIC: IC50 (nM)

compound=CNC(=O)c1cccc2cc(Oc3ccnc4cc(OCC5(N)CC5)c(OC)cc34)ccc12 assay_metric=IC50 observed_value=42
compound="CNC(=O)c1cc(Oc2ccc(NC(=O)Nc3ccc(Cl)c(C(F)(F)F)c3)cc2)ccn1 [Sorafenib, reference compound]" assay_metric=IC50 observed_value=337

* * *

PROTOCOL DESCRIPTION: Plasma pharmacokinetics after p.o. administration
Format: in vivo, rats
TEST SETTINGS: rat, in vivo, po
ASSAY METRIC: bioavailability (%)

structure_as_smiles=CNC(=O)c1cccc2cc(Oc3ccnc4cc(OCC5(N)CC5)c(OC)cc34)ccc12 readout_units=% observed_value=31

* * *

STUDY SYSTEM: c-Kit (Homo sapiens)
Sequence (P10721 589-937 limits assumed): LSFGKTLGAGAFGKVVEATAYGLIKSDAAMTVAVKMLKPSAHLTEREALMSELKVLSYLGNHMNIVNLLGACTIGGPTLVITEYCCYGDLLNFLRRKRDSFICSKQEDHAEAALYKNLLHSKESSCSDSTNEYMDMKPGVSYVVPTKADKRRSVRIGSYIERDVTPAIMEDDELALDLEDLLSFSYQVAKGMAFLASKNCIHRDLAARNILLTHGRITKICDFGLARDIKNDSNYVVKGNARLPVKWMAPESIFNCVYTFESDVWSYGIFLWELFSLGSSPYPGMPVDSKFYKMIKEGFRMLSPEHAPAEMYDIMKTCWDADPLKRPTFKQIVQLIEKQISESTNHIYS
ASSAY METRIC: IC50 (nM)

molecule="CNC(=O)c1cccc2cc(Oc3ccnc4cc(OCC5(N)CC5)c(OC)cc34)ccc12 [AL3810]" study_system="c-Kit (Homo sapiens)" assay_metric=IC50 observed_value=527

* * *

STUDY SYSTEM: VEGFR2 (Homo sapiens, UniProt P35968)
Sequence (P35968 834-1162 limits assumed): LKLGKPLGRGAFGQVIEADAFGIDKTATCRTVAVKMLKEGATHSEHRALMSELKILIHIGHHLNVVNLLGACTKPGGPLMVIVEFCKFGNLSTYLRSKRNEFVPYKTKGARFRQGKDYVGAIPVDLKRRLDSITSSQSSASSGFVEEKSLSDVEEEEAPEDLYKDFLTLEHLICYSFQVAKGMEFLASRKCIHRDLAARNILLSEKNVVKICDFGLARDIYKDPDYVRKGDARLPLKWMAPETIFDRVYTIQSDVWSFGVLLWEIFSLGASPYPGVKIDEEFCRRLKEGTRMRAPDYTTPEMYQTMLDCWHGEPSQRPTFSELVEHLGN
PROTOCOL DESCRIPTION: biochemical
ASSAY METRIC: IC50 (nM)

compound="CNC(=O)c1cccc2cc(Oc3ccnc4cc(OCC5(N)CC5)c(OC)cc34)ccc12 [AL3810]" study_system="VEGFR2 (Homo sapiens, UniProt P35968)" readout_units=nM observed_value=4

* * *

STUDY SYSTEM: c-Src (Homo sapiens, UniProt P12931)
Sequence (P12931 270-523 limits assumed, species assumed): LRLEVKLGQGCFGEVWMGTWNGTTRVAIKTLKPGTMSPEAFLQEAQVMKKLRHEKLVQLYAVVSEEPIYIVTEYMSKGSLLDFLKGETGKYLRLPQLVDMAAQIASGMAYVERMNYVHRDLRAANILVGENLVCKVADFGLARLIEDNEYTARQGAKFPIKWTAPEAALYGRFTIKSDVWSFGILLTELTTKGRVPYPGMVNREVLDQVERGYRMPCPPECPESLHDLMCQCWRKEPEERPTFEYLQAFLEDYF
pIC50: −log10 of the molar value.
ASSAY METRIC: pIC50

structure_as_smiles=CNC(=O)c1cccc2cc(Oc3ccnc4cc(OCC5(N)CC5)c(OC)cc34)ccc12 observed_value=5.31

* * *

STUDY SYSTEM: RET (Homo sapiens)
Sequence (P07949 29-1114, species assumed): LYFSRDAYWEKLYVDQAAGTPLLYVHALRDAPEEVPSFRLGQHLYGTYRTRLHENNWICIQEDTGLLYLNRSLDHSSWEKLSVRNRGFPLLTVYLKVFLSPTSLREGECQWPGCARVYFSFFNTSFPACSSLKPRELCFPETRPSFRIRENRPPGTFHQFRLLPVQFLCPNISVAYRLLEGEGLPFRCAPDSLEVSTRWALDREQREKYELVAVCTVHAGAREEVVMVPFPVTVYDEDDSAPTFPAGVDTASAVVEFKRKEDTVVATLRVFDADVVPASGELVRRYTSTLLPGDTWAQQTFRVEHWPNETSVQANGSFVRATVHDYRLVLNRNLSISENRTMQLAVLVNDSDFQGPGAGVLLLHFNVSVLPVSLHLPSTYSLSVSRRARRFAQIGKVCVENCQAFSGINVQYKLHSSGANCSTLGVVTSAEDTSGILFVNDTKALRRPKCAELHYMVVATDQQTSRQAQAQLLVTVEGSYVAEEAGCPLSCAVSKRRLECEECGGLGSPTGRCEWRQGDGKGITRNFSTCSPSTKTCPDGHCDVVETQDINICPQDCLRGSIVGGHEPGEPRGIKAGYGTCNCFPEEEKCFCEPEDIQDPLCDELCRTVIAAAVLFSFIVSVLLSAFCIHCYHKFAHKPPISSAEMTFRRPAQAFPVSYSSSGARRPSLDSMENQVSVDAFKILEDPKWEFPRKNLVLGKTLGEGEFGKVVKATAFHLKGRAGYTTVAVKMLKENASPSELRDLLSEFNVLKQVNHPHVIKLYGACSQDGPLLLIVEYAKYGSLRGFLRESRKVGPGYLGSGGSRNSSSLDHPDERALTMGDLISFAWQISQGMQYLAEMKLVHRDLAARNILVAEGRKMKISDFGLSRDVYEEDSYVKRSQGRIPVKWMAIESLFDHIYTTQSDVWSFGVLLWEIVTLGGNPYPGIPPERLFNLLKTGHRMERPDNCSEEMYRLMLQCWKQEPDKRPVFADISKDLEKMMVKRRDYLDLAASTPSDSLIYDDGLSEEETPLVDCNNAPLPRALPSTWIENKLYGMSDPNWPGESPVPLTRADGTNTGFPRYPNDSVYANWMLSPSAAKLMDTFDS
ASSAY METRIC: IC50 (nM)

molecule="CNC(=O)c1cccc2cc(Oc3ccnc4cc(OCC5(N)CC5)c(OC)cc34)ccc12 [AL3810]" readout_units=nM observed_value=200

* * *

STUDY SYSTEM: EPH-A2 (Homo sapiens)
Sequence (P29317 613-875 limits assumed, species assumed): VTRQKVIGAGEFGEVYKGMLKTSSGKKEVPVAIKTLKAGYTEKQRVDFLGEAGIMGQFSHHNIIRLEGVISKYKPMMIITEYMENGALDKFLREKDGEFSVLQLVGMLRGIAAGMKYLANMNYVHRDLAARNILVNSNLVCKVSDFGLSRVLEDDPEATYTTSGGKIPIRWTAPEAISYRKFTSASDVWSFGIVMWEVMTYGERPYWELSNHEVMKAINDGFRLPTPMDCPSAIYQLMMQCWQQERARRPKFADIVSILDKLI
ASSAY METRIC: IC50

compound="CNC(=O)c1cccc2cc(Oc3ccnc4cc(OCC5(N)CC5)c(OC)cc34)ccc12 [AL3810]" observed_value="6.66 µM"

* * *

STUDY SYSTEM: VEGFR1 (Homo sapiens, UniProt P17948)
Sequence (P17948 27-1338, species assumed): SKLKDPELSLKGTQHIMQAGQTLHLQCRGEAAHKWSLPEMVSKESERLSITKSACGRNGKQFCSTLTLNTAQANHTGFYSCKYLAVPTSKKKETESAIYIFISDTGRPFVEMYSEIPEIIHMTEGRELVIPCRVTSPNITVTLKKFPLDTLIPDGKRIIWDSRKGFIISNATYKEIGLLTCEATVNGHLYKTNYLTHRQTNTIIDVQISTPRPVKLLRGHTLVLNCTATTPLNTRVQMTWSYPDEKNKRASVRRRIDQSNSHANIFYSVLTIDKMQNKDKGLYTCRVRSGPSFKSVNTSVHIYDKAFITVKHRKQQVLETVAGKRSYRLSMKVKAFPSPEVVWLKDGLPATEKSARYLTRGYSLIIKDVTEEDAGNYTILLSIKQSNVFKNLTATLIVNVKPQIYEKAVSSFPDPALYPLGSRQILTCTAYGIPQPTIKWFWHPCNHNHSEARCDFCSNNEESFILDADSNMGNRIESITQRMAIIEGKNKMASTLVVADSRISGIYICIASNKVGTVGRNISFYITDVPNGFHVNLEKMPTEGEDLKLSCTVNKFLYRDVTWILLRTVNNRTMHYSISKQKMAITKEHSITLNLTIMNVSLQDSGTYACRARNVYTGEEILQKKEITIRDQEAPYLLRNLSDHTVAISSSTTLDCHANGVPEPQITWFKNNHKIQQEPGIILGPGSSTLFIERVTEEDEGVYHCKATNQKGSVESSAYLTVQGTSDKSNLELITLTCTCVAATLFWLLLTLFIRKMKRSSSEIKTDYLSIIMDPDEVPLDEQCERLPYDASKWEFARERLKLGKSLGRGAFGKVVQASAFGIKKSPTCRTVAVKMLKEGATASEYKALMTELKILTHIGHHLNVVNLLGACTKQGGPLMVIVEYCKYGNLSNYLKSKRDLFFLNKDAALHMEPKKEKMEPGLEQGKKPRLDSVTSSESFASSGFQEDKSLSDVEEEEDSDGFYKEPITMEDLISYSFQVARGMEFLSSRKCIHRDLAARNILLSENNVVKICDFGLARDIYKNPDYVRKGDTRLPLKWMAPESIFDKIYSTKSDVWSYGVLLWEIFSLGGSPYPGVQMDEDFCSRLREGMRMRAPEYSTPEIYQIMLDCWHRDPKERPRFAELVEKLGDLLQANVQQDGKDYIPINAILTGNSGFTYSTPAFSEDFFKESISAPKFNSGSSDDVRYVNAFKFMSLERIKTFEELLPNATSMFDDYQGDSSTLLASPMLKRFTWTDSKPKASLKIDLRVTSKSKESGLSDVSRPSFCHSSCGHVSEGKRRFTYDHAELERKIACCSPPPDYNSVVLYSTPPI
PROTOCOL DESCRIPTION: ELISA kinase assay VEGFR1
Type: biochemical
pIC50: −log10 of the molar value.
ASSAY METRIC: pIC50

structure_as_smiles=CNC(=O)c1cccc2cc(Oc3ccnc4cc(OCC5(N)CC5)c(OC)cc34)ccc12 assay_metric=pIC50 observed_value=7.92
